Protein target, amino acids: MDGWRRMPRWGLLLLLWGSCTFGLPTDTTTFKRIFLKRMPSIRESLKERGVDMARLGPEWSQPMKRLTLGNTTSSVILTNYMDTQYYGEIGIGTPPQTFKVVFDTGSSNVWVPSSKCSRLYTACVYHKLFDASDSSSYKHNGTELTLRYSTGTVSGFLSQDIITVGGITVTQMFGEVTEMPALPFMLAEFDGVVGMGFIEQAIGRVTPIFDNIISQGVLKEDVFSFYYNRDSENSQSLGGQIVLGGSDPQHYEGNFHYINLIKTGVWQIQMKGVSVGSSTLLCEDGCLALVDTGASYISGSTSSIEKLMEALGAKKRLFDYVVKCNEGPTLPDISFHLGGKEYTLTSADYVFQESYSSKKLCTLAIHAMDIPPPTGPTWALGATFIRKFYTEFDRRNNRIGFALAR

compound-structure-string	IC50 [nM]
COc1ccccc1COCCCOc1ccc(N2CCNC[C@@H]2COc2ccc3c(c2)N(CCNC(C)=O)CCC3)cc1	0.5
